Exercise: for every item that follows, state its recorded PBM binding z-score.
Tested on: PPARg homodimer (NR concentration 180 nM)
ASSAY_OVERVIEW: PBM binding z-score (relative to random genomic background probes); higher = stronger binding; sequences stand for … in GC…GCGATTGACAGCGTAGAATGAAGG

[[record]]
primary_sequence = "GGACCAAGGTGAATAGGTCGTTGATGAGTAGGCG"
outcome_measure = "PBM binding z-score"
result = 1.34

[[record]]
primary_sequence = "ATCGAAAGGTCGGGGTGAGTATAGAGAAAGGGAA"
outcome_measure = "PBM binding z-score"
result = 1.98

[[record]]
primary_sequence = "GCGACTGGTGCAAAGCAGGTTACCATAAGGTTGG"
outcome_measure = "PBM binding z-score"
result = -0.73

[[record]]
primary_sequence = "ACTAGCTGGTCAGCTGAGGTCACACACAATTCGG"
outcome_measure = "PBM binding z-score"
result = 2.22


Batch lookup, PBM binding z-score per entry.
1. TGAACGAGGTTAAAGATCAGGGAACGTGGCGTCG
2. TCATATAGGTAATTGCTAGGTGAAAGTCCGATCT

Result:
[0.615, 0.408]

====

System: PPARg homodimer (NR concentration 180 nM)
ASSAY_OVERVIEW: PBM binding z-score (relative to random genomic background probes); higher = stronger binding; sequences stand for … in GC…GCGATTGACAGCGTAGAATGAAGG
Classification field: enter TRUE for PBM binding z-score values not below 2, FALSE for values below it.

[[record]]
primary_sequence = "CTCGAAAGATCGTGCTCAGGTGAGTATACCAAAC"
label = "FALSE"

[[record]]
primary_sequence = "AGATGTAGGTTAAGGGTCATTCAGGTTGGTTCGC"
label = "TRUE"

[[record]]
primary_sequence = "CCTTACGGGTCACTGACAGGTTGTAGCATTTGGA"
label = "TRUE"


Request: # check: PBM binding z-score of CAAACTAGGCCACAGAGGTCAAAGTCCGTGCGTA is greater than or equal to 2
Result: TRUE

Request: # check: PBM binding z-score of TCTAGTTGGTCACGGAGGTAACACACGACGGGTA is greater than or equal to 2
Result: FALSE

Request: # check: PBM binding z-score of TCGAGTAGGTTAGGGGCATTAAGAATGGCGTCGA is greater than or equal to 2
Result: FALSE

Request: # check: PBM binding z-score of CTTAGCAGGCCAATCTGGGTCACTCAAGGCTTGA is greater than or equal to 2
Result: FALSE

Request: # check: PBM binding z-score of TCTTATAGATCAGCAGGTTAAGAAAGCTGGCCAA is greater than or equal to 2
Result: FALSE

Request: # check: PBM binding z-score of CCAGACAGGTGAAAGGTAACTCTGTCTGGTACGC is greater than or equal to 2
Result: FALSE

Request: # check: PBM binding z-score of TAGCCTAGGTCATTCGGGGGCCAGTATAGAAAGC is greater than or equal to 2
Result: FALSE

Request: # check: PBM binding z-score of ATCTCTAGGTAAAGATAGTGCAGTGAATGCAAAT is greater than or equal to 2
Result: FALSE

Request: # check: PBM binding z-score of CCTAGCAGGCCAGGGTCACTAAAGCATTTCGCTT is greater than or equal to 2
Result: FALSE

Request: # check: PBM binding z-score of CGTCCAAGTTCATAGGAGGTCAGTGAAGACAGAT is greater than or equal to 2
Result: TRUE

Request: # check: PBM binding z-score of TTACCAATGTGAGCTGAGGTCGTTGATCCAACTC is greater than or equal to 2
Result: FALSE

Request: # check: PBM binding z-score of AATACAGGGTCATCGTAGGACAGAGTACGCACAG is greater than or equal to 2
Result: TRUE

Request: # check: PBM binding z-score of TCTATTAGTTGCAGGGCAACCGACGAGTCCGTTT is greater than or equal to 2
Result: FALSE
